Overview of reported ELISA [abs. corr.] across a group of binders:
Biological target: T1, CD27 protein (His-tagged, Sino Biological Inc. 10039-H08B1) (human, UniProt P26842 20-192)
T1 construct: bought; coated onto ELISA plates; also called human CD27; recombinant protein; not shown: His tag
T1 sequence (looked up): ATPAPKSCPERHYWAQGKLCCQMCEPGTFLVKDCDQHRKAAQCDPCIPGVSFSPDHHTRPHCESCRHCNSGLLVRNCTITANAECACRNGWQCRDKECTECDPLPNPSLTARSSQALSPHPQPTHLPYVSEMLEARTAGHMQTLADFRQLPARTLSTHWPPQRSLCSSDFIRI
Test: ELISA on coated His-tagged CD27; also: test concentration or dose not given here
parameter_measured: ELISA [abs. corr.]

P018.S.01.A.C04 (antibody, V domains shown, V regions on human Ig constant parts; also called AB27_8) VH: QSLEESGGGLVTPGGTLTLTCTASGSDISTYHMGWFRQAPGKGLEYIGFINTGGTTWYASWAKGRFTVSRTSTTVDLLMTSPTTEDTATYFCARYDAGHAFFDLWGPGTLVTVSS VL: AVVMTQTASPVSAAVGGTVTIKCQASQSIGSSYFSWYQQKPGQPPKLLIYSASTLASGVSSRFKGSGSGTEYTLTISDLESADAATYYCQGYDGDTTTAFFAFGGGTEVVVE
3.24 abs. corr.
P018.S.01.A.D05 (antibody, V domains shown, V regions on human Ig constant parts; also called AB27_13) VH: QSLEESGGRLVTPGTPLTLTCTASGFSLSSYYMSWVRQAPGKGLEYIGGIYTGGSAYYASWARGRFTISRTSTTVDLKMTSLTIEDTATYFCARDAGDRIYTTFNLWGPGTLVTVSS VL: ALVMTQTPASVSEPVGGTVSLKCQASQSIGSDLSWYQQKSGQPPKLLIYRASKLASGVPSRFKGSGSGTEFTLTISGVQSDDAATYYCLGIDSYSSDDGIAFGGGTEVVVK
3.14 abs. corr.
P018.S.03.A.H05 (antibody, V domains shown, V regions on human Ig constant parts; also called AB27_63) VH: QSLEESGGDLVKPGASLTLTCTASGFSFSDRHYMCWVRQAPGKGLEWIGSIYTGKDSIDYASWAKGRFTISKTSSTTVTLQMTSLTAADTATYFCARDLLYGSSSGYLHTWGPGTLVTVSS VL: DIVMTQTPSSVSEPVGGTVTIKCQASHNIYSNLAWYQQKLGQPPKLLIYYASTLASGVPSRFKGSGSGTEYTLTISDLESDDAATYYCQSAYYGSIDITFGGGTEVVAQ
3.36 abs. corr.

The origin of these recorded values is patent US20210253725A1.
